Experiment: Kinetic solubility of compound by measuring concentration at pH 7.4 in saturated PBS buffer by UV LCMS/MS using calibration curves. The assay has been performed by Enamine biological services, Bienta Ltd.The protocol is publicly available: dx.doi.org/10.17504/protocols.io.j8nlk8y41l5r/v1
Format: physicochemical
Conditions: PBS buffer
result_type: solubility kinetic (µM)

See these solved cases before continuing.
CNC(=O)c1cccc(-c2cc3c(N[C@H](c4ccc5c(c4)S(=O)(=O)CCC5)C(C)C)ncnc3[nH]2)c1 :: 13
CC(C)[C@H](Nc1ncnc2[nH]c(-c3cnn(C)c3C#N)cc12)c1ccc2c(n1)NC(=O)CO2 :: 28
Cc1nn(C)cc1-c1cc2c(N[C@H](c3ccc4c(c3)S(=O)(=O)CCC4)C(C)C)ncnc2[nH]1 :: 65
CC(C)(C)[C@H](Nc1ncnc2[nH]c(-c3cnn(CC(N)=O)c3)cc12)c1ccc2c(c1)OCCO2 :: 89
CC(C)[C@H](Nc1ncnc2[nH]ccc12)c1ccc2c(c1)NC(=O)CO2 :: 371
Cn1ncc(-c2cc3c(N[C@@H](c4ccc5c(n4)OCCO5)C(C)(C)C)ncnc3[nH]2)c1C#N :: 25

P = CC(C)[C@@H](Nc1ncnc2[nH]cc(C(N)=O)c12)c1ccc2c(c1)OCCO2
Q = CC(C)[C@@H](Nc1ncnc2[nH]c(-c3cnn(C)c3)cc12)c1ccc2c(c1)S(=O)(=O)NCC2
IN: Please indicate which has the smaller reported solubility kinetic: P , or Q . Reply with the label of the item you choose.
OUT: Q
(Q: 105 µM, P: 375 µM)
